tested target: CYP3A4 (Homo sapiens (Human), UniProt P08684)
Sequence (P08684 whole entry): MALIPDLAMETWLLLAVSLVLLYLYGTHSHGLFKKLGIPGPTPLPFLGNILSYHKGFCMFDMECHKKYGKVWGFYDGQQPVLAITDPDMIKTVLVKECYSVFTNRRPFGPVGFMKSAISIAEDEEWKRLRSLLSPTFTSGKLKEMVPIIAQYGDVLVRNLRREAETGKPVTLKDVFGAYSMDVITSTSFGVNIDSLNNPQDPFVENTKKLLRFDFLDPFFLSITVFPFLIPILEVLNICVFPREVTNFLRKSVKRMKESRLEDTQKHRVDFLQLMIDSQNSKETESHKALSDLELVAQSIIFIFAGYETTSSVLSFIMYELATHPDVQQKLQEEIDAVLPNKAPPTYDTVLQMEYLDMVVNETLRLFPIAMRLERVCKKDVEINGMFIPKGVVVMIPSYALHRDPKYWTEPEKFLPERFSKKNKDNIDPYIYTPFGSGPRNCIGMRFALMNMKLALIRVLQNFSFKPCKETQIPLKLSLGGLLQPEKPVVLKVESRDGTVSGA
measurement protocol: biochemical
Assay type: in vitro ADME
conditions used: IC50 CYP3A4-M, substrate Midozolam

{"compound": "COc1ccc(F)c(-n2ncc3c2COC[C@H]3NC(=O)c2ncn3c2CCCC3)c1Cl (single isomer, unassigned)", "tested target": "CYP3A4 (Homo sapiens (Human), UniProt P08684)", "inequality sign": ">", "IC50 (µM)": 30}
{"compound": "COc1ccc(F)c(-n2ncc3c2CCC[C@H]3NC(=O)c2ncn3c2CCCC3)c1Cl [Compound C, reference compound]", "tested target": "CYP3A4 (Homo sapiens (Human), UniProt P08684)", "inequality sign": "=", "IC50 (µM)": 16}

src = patent US20250388602A1
